The measurements presented in this section are drawn from patent US8765746B2.

Target: PI3Kbeta (Homo sapiens)
Construct: His (N); host or cells: SF9 insect cells (baculovirus)
Sequence (P42338 whole entry): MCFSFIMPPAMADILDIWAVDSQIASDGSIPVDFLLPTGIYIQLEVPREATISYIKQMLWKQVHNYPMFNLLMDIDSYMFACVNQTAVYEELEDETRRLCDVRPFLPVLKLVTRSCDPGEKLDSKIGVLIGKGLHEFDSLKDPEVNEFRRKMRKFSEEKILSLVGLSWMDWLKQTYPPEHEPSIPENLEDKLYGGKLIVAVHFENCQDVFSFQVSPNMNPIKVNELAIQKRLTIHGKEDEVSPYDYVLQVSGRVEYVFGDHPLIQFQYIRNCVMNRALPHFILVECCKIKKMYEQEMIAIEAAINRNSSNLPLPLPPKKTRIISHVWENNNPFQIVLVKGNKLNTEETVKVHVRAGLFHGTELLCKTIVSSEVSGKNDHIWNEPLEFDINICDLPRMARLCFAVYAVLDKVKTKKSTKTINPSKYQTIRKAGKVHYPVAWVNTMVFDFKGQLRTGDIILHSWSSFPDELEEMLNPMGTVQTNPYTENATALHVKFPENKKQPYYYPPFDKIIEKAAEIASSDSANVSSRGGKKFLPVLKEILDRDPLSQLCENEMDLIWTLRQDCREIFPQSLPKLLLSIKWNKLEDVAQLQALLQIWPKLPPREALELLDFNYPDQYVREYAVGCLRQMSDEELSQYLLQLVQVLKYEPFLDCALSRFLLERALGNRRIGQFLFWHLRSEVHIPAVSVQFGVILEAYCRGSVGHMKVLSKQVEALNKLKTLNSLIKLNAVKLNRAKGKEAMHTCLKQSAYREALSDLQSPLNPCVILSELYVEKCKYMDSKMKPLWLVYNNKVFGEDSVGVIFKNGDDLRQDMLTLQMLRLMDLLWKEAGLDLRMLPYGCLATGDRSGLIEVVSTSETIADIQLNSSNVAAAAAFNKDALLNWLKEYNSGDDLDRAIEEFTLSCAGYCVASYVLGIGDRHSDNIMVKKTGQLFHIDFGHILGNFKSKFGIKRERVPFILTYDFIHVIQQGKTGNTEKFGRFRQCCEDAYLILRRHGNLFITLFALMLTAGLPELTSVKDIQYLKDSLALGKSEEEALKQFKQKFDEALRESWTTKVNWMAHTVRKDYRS
Sequence (P27986 whole entry partner): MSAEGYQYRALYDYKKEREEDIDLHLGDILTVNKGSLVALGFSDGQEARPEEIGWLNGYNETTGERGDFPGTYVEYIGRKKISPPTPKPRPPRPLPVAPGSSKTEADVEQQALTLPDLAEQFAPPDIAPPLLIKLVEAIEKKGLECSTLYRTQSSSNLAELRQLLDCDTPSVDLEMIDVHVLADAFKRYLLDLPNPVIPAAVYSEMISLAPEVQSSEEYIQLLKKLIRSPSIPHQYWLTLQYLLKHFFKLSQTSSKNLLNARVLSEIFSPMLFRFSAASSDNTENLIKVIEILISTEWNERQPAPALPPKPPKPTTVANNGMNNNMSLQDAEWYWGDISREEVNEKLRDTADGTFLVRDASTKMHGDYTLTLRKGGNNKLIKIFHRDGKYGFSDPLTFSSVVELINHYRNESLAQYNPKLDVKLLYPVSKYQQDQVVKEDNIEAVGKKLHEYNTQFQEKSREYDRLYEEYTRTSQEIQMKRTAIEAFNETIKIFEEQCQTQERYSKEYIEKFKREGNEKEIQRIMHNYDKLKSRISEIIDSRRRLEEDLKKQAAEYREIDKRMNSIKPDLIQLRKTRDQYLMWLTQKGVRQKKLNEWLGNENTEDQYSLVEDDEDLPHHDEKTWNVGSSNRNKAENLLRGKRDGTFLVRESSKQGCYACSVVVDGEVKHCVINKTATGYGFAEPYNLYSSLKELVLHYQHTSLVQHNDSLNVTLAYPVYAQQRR
Assay: Human PI3K beta enzyme assay (HTRF, as for PI3K alpha)
Format: biochemical
Conditions: at 1.11 μM
Below, each entry is listed with its recorded PI3Kbeta % inh.
assayMetric: PI3Kbeta % inh (%)

compound="O=C1NCC(c2ccc(Cl)c(Cl)c2)c2cc(N3CCOCC3)sc21 (centres unmarked)" measured=105.20
compound="CNC(=O)[C@@H]1NC(=O)c2sc(N3CCOCC3)cc2[C@H]1c1ccc(Cl)cc1 [Compound 123]" measured=101.46
compound="CNC(=O)[C@@H]1NC(=O)c2sc(C3=CCOCC3)cc2[C@H]1c1ccc(Cl)cc1 [Compound 121]" measured=104.98
compound="O=C1N[C@@H](C(=O)NCCCO)[C@H](c2ccc(Cl)cc2)c2cc(N3CCOCC3)sc21 [Compound 200]" measured=53.94
compound="O=C1N[C@@H](C(=O)NCCO)[C@H](c2ccc(Cl)cc2)c2cc(N3CCOCC3)sc21 [Compound 204]" measured=60.14
compound="O=C1N[C@@H](CO)CC(c2ccc3ccccc3c2)c2nc(N3CCOCC3)sc21 (some centres unmarked) [Compound 120]" measured=44.05
compound=CNC(=O)[C@@H]1NC(=O)c2sc(-c3ccncc3)cc2[C@H]1c1ccc(Cl)cc1 measured=76.80
compound="O=C1CCC(c2ccc(Cl)cc2)c2cc(-c3ccncc3)sc21 (single isomer, unassigned) [Compound 4]" measured=14.400

###

Target: PI3Kbeta (Homo sapiens)
Construct: His (N); host or cells: SF9 insect cells (baculovirus)
Test: Human PI3K beta enzyme assay (HTRF, as for PI3K alpha)
Assay type: biochemical
Conditions: at 1.11 μM
Friendly reminder: PI3Kbeta % inh below 70% is Y, at or above is N.

compound="O=C1CCC(O)C(c2ccc(Cl)cc2)c2cc(-c3ccncc3)sc21 (centres unmarked) [Compound 129]" classname=Y
compound="O=C1NCCC(c2ccc3ccccc3c2)c2nc(N3CCOCC3)sc21 (centres unmarked) [Compound 131]" classname=N
compound="O=C1N[C@@H](C(=O)NCCCO)[C@H](c2ccc(Cl)cc2)c2cc(N3CCOCC3)sc21 [Compound 170]" classname=N
compound="O=C1NCCC(c2ccc(Cl)cc2)c2cc(N3CCOCC3)sc21 (centres unmarked) [Compound 201]" classname=N
compound="O=C1CCC(c2ccc(Cl)cc2)c2cc(-c3ccncc3)sc21 (single isomer, unassigned) [Compound 22]" classname=N
compound="N#Cc1c(N2CCOCC2)sc2c1C(c1ccc(Cl)c(Cl)c1)CCNC2=O (centres unmarked) [Compound 199]" classname=N
compound="O=C1NCC(c2ccc(Cl)cc2)c2cc(N3CCOCC3)sc21 (centres unmarked) [Compound 211]" classname=Y

###

Target: PI3Kgamma (Homo sapiens)
Construct: His (N); host or cells: SF9 insect cells (baculovirus)
Sequence (P48736 whole entry): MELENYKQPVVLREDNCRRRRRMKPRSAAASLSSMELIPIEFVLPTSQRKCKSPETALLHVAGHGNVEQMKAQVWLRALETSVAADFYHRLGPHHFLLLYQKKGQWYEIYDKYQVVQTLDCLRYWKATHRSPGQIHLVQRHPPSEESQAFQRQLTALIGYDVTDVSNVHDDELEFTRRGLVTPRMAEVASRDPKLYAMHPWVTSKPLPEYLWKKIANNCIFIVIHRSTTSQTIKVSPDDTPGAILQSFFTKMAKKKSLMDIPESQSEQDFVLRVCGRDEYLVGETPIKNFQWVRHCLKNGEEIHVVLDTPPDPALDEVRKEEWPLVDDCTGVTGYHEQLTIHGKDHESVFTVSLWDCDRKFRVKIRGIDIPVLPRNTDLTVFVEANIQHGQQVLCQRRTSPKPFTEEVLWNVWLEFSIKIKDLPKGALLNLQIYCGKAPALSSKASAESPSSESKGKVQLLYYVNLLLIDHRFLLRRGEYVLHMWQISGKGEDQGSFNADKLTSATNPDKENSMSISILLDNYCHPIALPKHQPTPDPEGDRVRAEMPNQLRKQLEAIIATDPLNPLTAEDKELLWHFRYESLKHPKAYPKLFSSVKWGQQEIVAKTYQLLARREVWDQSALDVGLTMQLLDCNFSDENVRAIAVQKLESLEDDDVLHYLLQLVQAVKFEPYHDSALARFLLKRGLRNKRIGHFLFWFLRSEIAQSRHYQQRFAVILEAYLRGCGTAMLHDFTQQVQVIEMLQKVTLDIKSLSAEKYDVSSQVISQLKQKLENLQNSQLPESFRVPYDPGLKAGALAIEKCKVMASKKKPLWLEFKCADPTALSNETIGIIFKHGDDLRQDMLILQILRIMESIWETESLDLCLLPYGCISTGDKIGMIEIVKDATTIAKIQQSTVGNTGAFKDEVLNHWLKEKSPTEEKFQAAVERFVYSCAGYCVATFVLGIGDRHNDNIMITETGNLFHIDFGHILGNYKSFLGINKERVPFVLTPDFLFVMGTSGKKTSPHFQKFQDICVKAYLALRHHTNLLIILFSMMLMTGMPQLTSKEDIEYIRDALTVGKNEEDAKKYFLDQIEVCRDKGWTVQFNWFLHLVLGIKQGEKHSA
Experiment: Human PI3K gamma enzyme assay (HTRF, as for PI3K alpha)
Assay type: biochemical
Settings: read-out: PI3Kgamma % inh
assayMetric: inhibition at 1.11 µM (%)

compound=O=C1N[C@@H](C(=O)NCCCO)[C@H](c2ccc(Cl)cc2)c2cc(N3CCOCC3)sc21 assaymetric="inhibition at 1.11 µM" measured=12.5
compound="O=C1CC(c2ccc(Cl)c(Cl)c2)c2cc(N3CCOCC3)sc21 (stereo not drawn)" assaymetric="inhibition at 1.11 µM" measured=64.4
compound="O=C1CCC(O)C(c2ccc(Cl)cc2)c2cc(-c3ccncc3)sc21 (stereo not drawn)" assaymetric="inhibition at 1.11 µM" measured=5.88
compound="N#Cc1c(N2CCOCC2)sc2c1C(c1ccc(Cl)cc1)NC2=O (stereo not drawn)" assaymetric="inhibition at 1.11 µM" measured=32.2
compound="N#Cc1c(N2CCOCC2)sc2c1C(c1ccc3ccccc3c1)NC2=O (stereo not drawn)" assaymetric="inhibition at 1.11 µM" measured=71.3
compound="O=C1NCC(c2ccc(Cl)cc2)c2cc(N3CCOCC3)sc21 (stereo not drawn)" assaymetric="inhibition at 1.11 µM" measured=45.9
